The measurements presented in this section are drawn from ChEMBL document CHEMBL3137667.

# Condition: human;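 note: human clinical data: severe hepatitis, meaning potentially life-threatening liver failure or clinically observed cases, the value counts how many indexed literature references report it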

Molecule	Hepatotoxicity (severe hepatitis)
CC(NCCc1ccc(O)cc1)C(O)c1ccc(O)cc1 (stereo not given) [RITODRINE]	0
CC[C@@]1(O)C(=O)OCc2c1cc1n(c2=O)Cc2cc3c(CN(C)C)c(O)ccc3nc2-1 [TOPOTECAN]	0
Cc1[nH]c(=O)c(C#N)cc1-c1ccncc1 [MILRINONE]	0
CC(S)C(=O)NCC(=O)O (stereo not given) [TIOPRONIN]	0
Nc1cc([As]2[As](c3ccc(O)c(N)c3)[As](c3ccc(O)c(N)c3)[As](c3ccc(O)c(N)c3)[As]2c2ccc(O)c(N)c2)ccc1O.Nc1cc([As]2[As](c3ccc(O)c(N)c3)[As]2c2ccc(O)c(N)c2)ccc1O (stereo not given)	1
